Source listed as the supplement of paper PMC10567573.

B1: C19orf51 (parent)
chain: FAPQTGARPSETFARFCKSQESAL

# Variants of: B1
# Protocol Text: protein stability index of a GFP-peptide fusion (GPS, HEK-293T) (PSI 1-6); higher = more stable;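 also: lentivirally expressed fusions sorted by FACS into six bins by GFP to DsRed ratio, PSI derived from sequencing read proportions per bin multiplied by bin number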
# Stated Conditions: c terminus: a fixed tail appended
Decide using protein stability index: a value greater than or equal to 2 is rule met, a smaller one is rule not met.

Record FPPQTGARPSETFARFCKSQESAL ; criterion: protein stability index no lower than 2. Met? rule met

Next record, please: FAPQTAARPSETFARFCKSQESAL rule met

Now try FAPQTGARPSETFARFCKSQESWL . rule met

Now try FAPQTGARPSETFARTCKSQESAL . rule met

Same lookup for FAPQYGARPSETFARFCKSQESAL , please. rule met

What would you report for FAPQTGARPSETFARFCKSQESAT ? rule met

Ok, now FAPQTGARPSETFGRFCKSQESAL rule not met

Note, next up: FAPQTGARNSETFARFCKSQESAL rule met

Input FAPQTGARYSETFARFCKSQESAL rule met

Proceed to FAPQTGARPSETFARFCKSEESAL rule met

What about FAPQTGARPSETFARFCKRQESAL ? rule met

And then FMPQTGARPSETFARFCKSQESAL , what is it? rule not met

Queued: FAPQTGARPSETFARFCKSQASAL rule met

Lookup FAPQPGARPSETFARFCKSQESAL rule not met

Queued: FAPQTGAEPSETFARFCKSQESAL rule met

Same again, this time with FAPQTGARPSETFARFSKSQESAL rule not met

Proceed to FAPQTGARPSETFARFCKWQESAL rule not met

What about FAPQTGARPSETFARNCKSQESAL ? rule not met

One more variant: FAPQTGATPSETFARFCKSQESAL rule not met

Field entry: FAPQTGARPSETNARFCKSQESAL rule met

And what about the variant FAPQTGARPSETFARFCKSQQSAL ? rule met

Proceed to FAPQTGARPSETFARFCKSQECAL rule met

For FAPQTEARPSETFARFCKSQESAL then? rule not met

Same question for FAPQTGARPSETCARFCKSQESAL please. rule met

Follow-up item: FAAQTGARPSETFARFCKSQESAL rule not met

Now try FAPQTGARPSITFARFCKSQESAL . rule not met

How about this variant: FAPLTGARPSETFARFCKSQESAL rule met

Moving on to FAPQTGARPSETFACFCKSQESAL rule met

Query FAPQTGARPFETFARFCKSQESAL next rule met

Field entry: FAPQTGARPSETFARFPKSQESAL rule not met

What do you get for FAPQTGARPSETFARFCVSQESAL ? rule met

Consider next the variant FAPQTQARPSETFARFCKSQESAL in the same way. rule not met

Note, next up: FGPQTGARPSETFARFCKSQESAL rule met

How about this variant: FAPQTGARPSETFARACKSQESAL rule met

Same thing, different variant: TAPQTGARPSETFARFCKSQESAL rule met

And what about the variant FAPQTGARPSETFARFCKSHESAL ? rule not met

Query FTPQTGARPSETFARFCKSQESAL next rule not met

And the next one, FAPQTGARMSETFARFCKSQESAL ? rule met

One more variant: FAPQTGARPRETFARFCKSQESAL rule met

Also FAPQTGARPSEQFARFCKSQESAL , if possible. rule not met

Same question for FAPQTGARPSETFARFCKSMESAL please. rule not met

Follow-up entry: FAPQTGARPSETFARFCKSQESAF rule met

Now try FAPQTGARPSETFARFCKSQESPL . rule met

// repeat for FAPQTGARPSETFARFCKSQESAR and report rule met

Follow-up entry: PAPQTGARPSETFARFCKSQESAL rule met

Try this variant too: FAPQTGARPSETFYRFCKSQESAL rule met

Let us now turn to FAPQTIARPSETFARFCKSQESAL rule met

Cool, now FAPYTGARPSETFARFCKSQESAL rule met

Now try FAPQTGARPSETFARFCKSQEWAL . rule not met

Again, but for FAPQTGARPSEFFARFCKSQESAL rule met

Record: FAPQTGARPSKTFARFCKSQESAL rule not met

Repeat for the following variant: FAPQTGARESETFARFCKSQESAL rule not met

Similarly, FAPQTGARPSERFARFCKSQESAL ? rule met

Another: FAPQTGARPSETFADFCKSQESAL rule not met

Now the same for EAPQTGARPSETFARFCKSQESAL rule met

Input FAPQTGARPSETFERFCKSQESAL rule not met

Now consider FAPQTGARPSETFARFCKSQESKL and answer again. rule not met

Another: FAPQTGARPSETFARFCKSQESAG rule met

Could you do the same for FAPQTGARPSETFATFCKSQESAL , please? rule met

Note, next up: FAPQTGARPSETFARFEKSQESAL rule not met

# iterate: FAPQTGARPSETFARFCKSQESRL rule met

FAPQTGARKSETFARFCKSQESAL , same question. rule met

Same for FAPQTCARPSETFARFCKSQESAL rule not met

And for FAPQTGARISETFARFCKSQESAL ? rule met

Another variant: GAPQTGARPSETFARFCKSQESAL rule met

Same read-out for FAPQTGARPSETFARFCKSQESVL ? rule not met

Continue with FAPQTGARPSETFARFCKSQEVAL rule not met
